Measured MIC90 accompanies every entry in the list below.
# Test system: Mycobacterium tuberculosis
# Method: microbe, parasite or virus in culture
# Test parameters: 168 h
Be sure to follow the number with its unit.

# Molecule, Recorded metric, Assay result
rows = [
    ("O=[N+]([O-])c1ccc(S(=O)(=O)N2CCN(Cc3ccc([N+](=O)[O-])o3)CC2)cc1", "MIC90", "0.63 µM"),
    ("O=[N+]([O-])c1ccc(CN2CCN(c3ccc(N4CCOCC4)cc3)CC2)o1", "MIC90", "0.08 µM"),
    ("COc1cccc(N2CCN(Cc3ccc([N+](=O)[O-])o3)CC2)c1", "MIC90", "0.37 µM"),
    ("O=[N+]([O-])c1ccc(CN2CCN(c3cccc(C(F)(F)F)c3)CC2)o1", "MIC90", "5.63 µM"),
    ("O=[N+]([O-])c1ccc(CN2CCN(c3ccc(F)cc3)CC2)o1", "MIC90", "6.55 µM"),
    ("O=[N+]([O-])c1ccc(CN2CCN(c3ccccc3)CC2)o1", "MIC90", "13.9 µM"),
    ("N#Cc1cccc(N2CCN(Cc3ccc([N+](=O)[O-])o3)CC2)c1", "MIC90", "0.19 µM"),
    ("O=[N+]([O-])c1ccc(CN2CCN(S(=O)(=O)c3ccc(F)cc3)CC2)o1", "MIC90", "1.35 µM"),
    ("Cc1cccc(N2CCN(Cc3ccc([N+](=O)[O-])o3)CC2)c1C", "MIC90", "25.3 µM"),
    ("CC(C)(C)c1ccc(N2CCN(Cc3ccc([N+](=O)[O-])o3)CC2)cc1", "MIC90", "1.32 µM"),
]

Entry `CC(C)(C)OC(=O)N1CCN(Cc2ccc([N+](=O)[O-])o2)CC1` : reported MIC90 = ?
0.32 µM

Entry `O=[N+]([O-])c1ccc(CN2CCN(c3ccccc3F)CC2)o1` : reported MIC90 = ?
13.1 µM

Entry `O=[N+]([O-])c1ccc(CN2CCN(c3ccc(Cl)cc3)CC2)o1` : reported MIC90 = ?
0.072 µM

Entry `Cc1ccc(S(=O)(=O)N2CCN(Cc3ccc([N+](=O)[O-])o3)CC2)cc1` : reported MIC90 = ?
0.68 µM

Entry CO[C@H]1/C=C/O[C@@]2(C)Oc3c(C)c(O)c4c(O)c(c(/C=N/N5CCN(C)CC5)c(O)c4c3C2=O)NC(=O)/C(C)=C\C=C\[C@H](C)[C@H](O)[C@@H](C)[C@@H](O)[C@@H](C)[C@H](OC(C)=O)[C@@H]1C [RIFAMPIN] : reported MIC90 = ?
311 µM

Entry `O=[N+]([O-])c1ccc(CN2CCN(S(=O)(=O)c3ccccc3)CC2)o1` : reported MIC90 = ?
2.13 µM

Entry `O=[N+]([O-])c1ccc(CN2CCN(c3cccc(Cl)c3)CC2)o1` : reported MIC90 = ?
0.37 µM

Entry COc1c(N2CCNC(C)C2)c(F)cc2c(=O)c(C(=O)O)cn(C3CC3)c12 (stereo not drawn) [GATIFLOXACIN] : reported MIC90 = ?
2.66 µM

---

# System: Mycobacterium tuberculosis
# Method: microbe, parasite or virus in culture
# Test parameters: 168 h
Measured MIC90 accompanies every entry in the list below.

# Chemical structure, Assay result
measured = [
    ("O=[N+]([O-])c1ccc(CN2CCN(S(=O)(=O)c3ccccc3)CC2)o1", "> 22.7 µM"),
    ("O=[N+]([O-])c1ccc(S(=O)(=O)N2CCN(Cc3ccc([N+](=O)[O-])o3)CC2)cc1", "4.19 µM"),
    ("N#Cc1cccc(N2CCN(Cc3ccc([N+](=O)[O-])o3)CC2)c1", "0.06 µM"),
]

Attention now turns to another entry.
Entry `CC(C)(C)OC(=O)N1CCN(Cc2ccc([N+](=O)[O-])o2)CC1` : reported MIC90 = ?
0.12 µM

Reference source for all entries: ChEMBL document CHEMBL3739354
